- Test system: LXRa:RXRa (NR concentration 270 nM, RXRa partner concentration 90 nM)
- Measurement Description: PBM binding z-score (relative to random genomic background probes); higher = stronger binding; sequences stand for … in GC…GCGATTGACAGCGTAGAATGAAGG
Measured Attribute: PBM binding z-score

[[record]]
seq_text = "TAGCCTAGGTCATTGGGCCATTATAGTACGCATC"
tgt = "LXRa:RXRa (NR concentration 270 nM, RXRa partner concentration 90 nM)"
measured_attribute = "PBM binding z-score"
numeric_readout = 3.93

[[record]]
seq_text = "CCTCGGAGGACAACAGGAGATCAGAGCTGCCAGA"
tgt = "LXRa:RXRa (NR concentration 270 nM, RXRa partner concentration 90 nM)"
measured_attribute = "PBM binding z-score"
numeric_readout = -0.36

[[record]]
seq_text = "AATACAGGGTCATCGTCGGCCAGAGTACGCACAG"
tgt = "LXRa:RXRa (NR concentration 270 nM, RXRa partner concentration 90 nM)"
measured_attribute = "PBM binding z-score"
numeric_readout = 6.48

[[record]]
seq_text = "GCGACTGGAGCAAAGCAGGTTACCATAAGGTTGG"
tgt = "LXRa:RXRa (NR concentration 270 nM, RXRa partner concentration 90 nM)"
measured_attribute = "PBM binding z-score"
numeric_readout = -0.594

[[record]]
seq_text = "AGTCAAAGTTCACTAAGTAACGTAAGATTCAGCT"
tgt = "LXRa:RXRa (NR concentration 270 nM, RXRa partner concentration 90 nM)"
measured_attribute = "PBM binding z-score"
numeric_readout = 4.94

[[record]]
seq_text = "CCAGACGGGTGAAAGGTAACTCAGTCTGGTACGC"
tgt = "LXRa:RXRa (NR concentration 270 nM, RXRa partner concentration 90 nM)"
measured_attribute = "PBM binding z-score"
numeric_readout = 0.178


Taken from the supplement of paper PMC6555819.
